study_target: c-Src SH2;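 further: peptide library displayed on the E. coli surface as eCPX fusions, selected cells deep-sequenced, score is each peptide's frequency after selection divided by its frequency in the input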
experimental_protocol: SH2 binding enrichment of the phosphorylated peptide, bacterial display (enrichment ratio); higher = better substrate or ligand; peptides without Tyr show the background

| sequence_content | SH2 binding enrichment |
| --- | --- |
| DLAGRYFALKS [CKB_Y173_YF] | 0.585 |
| DGNIDYAEFAK [MCFD2_Y138_Y135N] | 0.443 |
| SLIERYEPSET [PLCD1_Y258] | 0.759 |
| VRRRSYSAGNA [KANK1_Y324_K321R] | 0.488 |
| SKGFAYVHFDS [PABPC5_Y149_YF] | 1.96 |
| KVITDYYVDMK [MPP4_Y566] | 2.9 |
| ALKKPYSVLFK [RPF2_Y59_G60S_YF] | 1.58 |
| HFECKYVINAI [MAOA_Y268_YF] | 0.432 |
| DERQPYAHMNG [IGF1R_Y1346] | 1.85 |
| ADELEYSRTGL [MMUT_Y287_G284E] | 0.457 |
| ASPALYRLDLD [TRIL_Y352] | 0.457 |
| RAMPVYEKAEH [TP63_Y231_K232E] | 2.1 |
| HHFAAYFQQGD [GPI_Y351_R347H] | 0.661 |
| DESEDYRDTVV [CNNM3_Y456] | 0.439 |
